assay type: in vivo; details: human ileal effluent 4 h after 5 g TU-100 oral, β-glucuronidase treatment −
experimental.readout: % of ingested TU-100, Median

Below, 8 compounds whose answers are already recorded.
INSERT INTO results (compound, experimental_readout, value_reported) VALUES
  ('C/C=C/C=C/C=C\CC/C=C/C=C/C(=O)NCC(C)C', '% of ingested TU-100, Median', '4.1%'),
  ('CCCCCCCCC[C@H](O)CC(=O)CCc1ccc(O)c(OC)c1 [10G, [10]-gingerol]', '% of ingested TU-100, Median', 'B.L.Q'),
  ('CCCCC[C@H](O)CC(=O)CCc1ccc(O)c(OC)c1 [6G, [6]-gingerol]', '% of ingested TU-100, Median', 'B.L.Q'),
  ('C/C=C/C=C/C=C/CC/C=C/C(=O)NCC(C)(C)O [HBS, hydroxy-β-sanshool]', '% of ingested TU-100, Median', 'B.L.Q'),
  ('CC(C)=CCC[C@](C)(O[C@@H]1O[C@H](CO[C@@H]2O[C@H](CO)[C@@H](O)[C@H](O)[C@H]2O)[C@@H](O)[C@H](O)[C@H]1O)[C@H]1CC[C@]2(C)[C@@H]1[C@H](O)C[C@@H]1[C@@]3(C)CC[C@H](O[C@@H]4O[C@H](CO)[C@@H](O)[C@H](O)[C@H]4O[C@@H]4O[C@H](CO)[C@@H](O)[C@H](O)[C@H]4O)C(C)(C)[C@@H]3CC[C@]12C [Rb1, ginsenoside Rb1]', '% of ingested TU-100, Median', '59.1%'),
  ('CCCCCCCCC/C=C/C(=O)CCc1ccc(O)c(OC)c1 [10S, [10]-shogaol]', '% of ingested TU-100, Median', 'B.L.Q'),
  ('CCCCC/C=C/C(=O)CCc1ccc(O)c(OC)c1 [6S, [6]-shogaol]', '% of ingested TU-100, Median', 'B.L.Q'),
  ('CC(C)=CCC[C@](C)(O[C@@H]1O[C@H](CO)[C@@H](O)[C@H](O)[C@H]1O)[C@H]1CC[C@]2(C)[C@@H]1[C@H](O)C[C@@H]1[C@@]3(C)CC[C@H](O)C(C)(C)[C@@H]3[C@@H](O[C@@H]3O[C@H](CO)[C@@H](O)[C@H](O)[C@H]3O)C[C@]12C [Rg1, ginsenoside Rg1]', '% of ingested TU-100, Median', '91.5%');

// next item, % of ingested TU-100, Median requested
Challenge: Look up and report measured % of ingested TU-100, Median for this entry: C/C=C/C=C/C=C\CC/C=C/C(=O)NCC(C)(C)O [HAS, hydroxy-α-sanshool]
Response given: B.L.Q
